Where do these numbers come from? They come from PubChem BioAssay AID624491.

Test system: D54 ERlucT glycosylation luciferase reporter, luminescence, 24 h
assay-comment: N-linked glycosylation inhibitors, luciferase reporter, dose response, D54 ERlucT cells, luminescence, cherry-picks (AID 624491);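 further: signal gain reflects blocked N-linked glycosylation of a luciferase reporter; actives raise luciferase signal so AC26 marks activators of the reporter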
readout-name: AC26

O=C(c1[nH]c(C(F)(F)F)nc1-c1ccccc1)N1CCN(c2cccc(C(F)(F)F)n2)CC1	9230 nM
COc1cc(-c2noc(C)c2-c2ccc(N(C)C)nc2)cc(OC)c1OC	112 nM
O=C(/C=C/Sc1ccccc1)c1ccc(Cl)cc1	727 nM
Cc1ccc(NC(=O)CSc2nnc(-c3ccco3)c(-c3ccco3)n2)cc1	1240 nM
COc1ccc(C(=O)CC(SCC(NC(C)=O)C(=O)O)c2ccc(Cl)cc2)cc1OC (stereo unspecified)	1440 nM
Nc1nc(=S)c2ncn([C@@H]3O[C@H](CO)[C@@H](O)[C@H]3O)c2[nH]1	368 nM

QUERY: Entry `COc1ccc([C@@H]2[C@@H]3C(=O)N(C(C)(C)C)C(=O)[C@@H]3[C@]3(Cc4ccccc4)C(=O)N(c4cccc(Cl)c4)C(=O)N23)cc1` : reported AC26 = ?
RESULT: 2990 nM

QUERY: One more compound: `COc1cc2c(cc1OC)CN(c1ccc(C(F)(F)F)cn1)CC2`
RESULT: 4710 nM

QUERY: One more compound: `COc1cc2c(cc1OC)C(=O)N1[C@H]3c4cc(Cl)ccc4OC[C@@H]3[C@H](c3ccccc3)[C@]1(C)C(=O)N2`
RESULT: 609 nM

QUERY: One more compound: CC(=O)Nc1cccc(-c2ccnc3c2CC(C(=O)Nc2ccc4c(c2)OCO4)O3)c1 (stereo unspecified)
RESULT: 4550 nM

QUERY: One more compound: `COc1cccc(-c2nn(C)c3sc(C(=O)NCc4ccco4)cc23)c1`
RESULT: 3620 nM

QUERY: One more compound: CC(Nc1nc(-c2cccnc2)nc2ccccc12)c1ccccc1 (stereo unspecified)
RESULT: 2830 nM

QUERY: One more compound: `Cc1cc(C)c(S(=O)(=O)N(C)CC(=O)N2CCCC2)c(C)c1`
RESULT: 2910 nM

QUERY: One more compound: `CCOC(=O)c1c(C)[nH]c(C(=O)N/N=C/c2ccc(OC)c(OC)c2)c1C`
RESULT: 2070 nM
